Test readout: melting point

- Compound: "CC(C)CC(C(=O)OCc1ccc([N+](=O)[O-])cc1)N(C(=O)OC(C)(C)C)C1CC1 (stereo unspecified)"
  melting point: "139 to 143 °C"
- Compound: "O=CNc1ccc(Cl)cc1C(=O)c1ccccc1Cl"
  melting point: "106 to 107 °C"
- Compound: "CCc1cc(Cl)cc2[nH]c(=O)c(-c3ccccc3)c(O)c12"
  melting point: "284 to 288 °C"

For each of the compounds below, note its melting point.
1. OCc1ccn(-c2ccc(OC(F)(F)F)cc2)n1
2. CCN(c1ccc(Cl)cc1C#N)S(=O)(=O)c1ccc(C)cc1
3. Cc1nsc(CCCOc2c(C)cc(-c3noc(C(F)F)n3)cc2C)n1

*A*
1. 53 to 54 °C
2. 138 to 140 °C
3. 62 to 64 °C

* * *

What melting point was measured for each of the following?

Solved entries:
- Molecule: "CC(=O)N1CCCCc2ccc(C(=O)CCN(C)C)cc21"
  Result: "68 to 70 °C"
- Molecule: "Cc1ccc(S(=O)(=O)NN=C(Cc2ccc(OCc3ccccc3)cc2)c2cc(OCc3ccccc3)cc(OCc3ccccc3)c2)cc1"
  Result: "147 °C"
- Molecule: "O=C(O)CCn1c(=O)n(CCCCN2CCC(OC(c3ccccc3)c3ccccc3)CC2)c(=O)c2ccccc21"
  Result: "110 to 112 °C"

Provide melting point values for the following items, in order.
1. O=S1(=O)N(CCCN2CC=C(c3ccccc3)CC2)c2cccc3cccc(c23)N1CCCN1CC=C(c2ccccc2)CC1
2. COc1ccccc1Sc1c(O)c2c(Cl)cc(Cl)cc2[nH]c1=O
3. CCOCC1CN2CCC1CC2 (stereo not given)

*A*
1: 140 °C; 2: 269 to 270 °C; 3: 73 to 77 °C

* * *

Provide the reported melting point of each item.

Solved cases (4 shown):
- Compound: "CNC(CO)CCOc1cccc2ccccc12 (stereo not given)"
  Test readout: "melting point"
  Result: "101 to 102 °C"
- Compound: "CC(C)OC(=O)c1ncn2c3cccc(Cl)c3c(=O)n(C)c12"
  Test readout: "melting point"
  Result: "216 to 220 °C"
- Compound: "CS(=O)(=O)OCCOc1cc([N+](=O)[O-])ccc1N"
  Test readout: "melting point"
  Result: "132 to 135 °C"
- Compound: "CCCCCC(C#CC1C(O)CC(=O)C1CCCCCCC(=O)OC)OC1CCCCO1 (mixture of isomers)"
  Test readout: "melting point"
  Result: "84 to 85 °C"

Below are some compounds; for each one, tell me its melting point.
1. CCCCCC(CC(=O)Nc1cc(C(=O)O)ccc1C(C)(C)C)c1ccc(OC)cc1OC (stereo not given)
2. COc1ccc(-c2c(Cl)c(CN3C(=O)CCC3=O)nc3sc4c(c23)CC(C)(C)C(OCc2ccccc2)C4)cc1 (stereo not given)
3. O=[S@@]1CCCC[C@@H]1c1cccnc1
4. CCCCCCCCCCCCC1CC(=O)N(NC(=O)CCc2cc(C(C)(C)C)c(O)c(C(C)(C)C)c2)C1=O (stereo not given)
5. Cn1nc(-c2cnc(N)nc2-c2ccc(Cl)cc2)ccc1=O
6. CCNc1nc(NC(C)C)nc(OC)n1

*A*
153 to 154 °C
221 to 223 °C
124 to 126 °C
55 to 60 °C
264 °C
95 to 96 °C

* * *

Test readout: melting point

Answered examples (2):
- Compound: "COc1cccc(OC2COc3ccc(O)cc3C2O)c1 (stereo not given)"
  Test readout: "melting point"
  Result: "187 to 189 °C"
- Compound: "O=C(Nc1ccc2nc(CN3CCCC3)ccc2c1)[C@H]1CO[C@H](c2ccc(Cl)cc2)OC1"
  Test readout: "melting point"
  Result: "244 to 246 °C"

// batch mode: one melting point value per listed entry
1. CC(C)NC(=O)c1ccc(CCN2CC=C(c3c[nH]c(-c4ccc(F)cc4)c3-c3ccncc3)CC2)cc1
2. N=C(NO)c1ccc(S(N)(=O)=O)s1
3. CCc1cc(C)cc(C)c1NC(=S)NC(C)(C)CC

*A*
1: 178 to 180 °C; 2: 189 °C; 3: 105 to 107 °C

* * *

Exercise: state measured melting point for each of the compounds provided.

Below, each entry is followed by its recorded melting point result.
- Compound: "CCOC(=O)c1ncc2[nH]c3ccccc3c2c1CCOC"
  Test readout: "melting point"
  Result: "181 to 183 °C"
- Compound: "COC(=O)C(C)=C(C)C(=O)N(C(=O)c1ccccc1)c1cc(OC)c(Cl)cc1F"
  Test readout: "melting point"
  Result: "142 to 145 °C"

I need melting point for every entry listed below, if you could help.
1. COc1cc2c(Cl)c(C#N)cnc2cc1OS(=O)(=O)C(F)(F)F
2. COC12CC(C)(c3nnc(-c4cncc(Br)c4)o3)CN(C)C1Cc1cn(C)c3cccc2c13 (stereo unspecified)
3. CN1CCC(c2c[nH]c3ccc(Br)cc23)C1 (stereo unspecified)
4. COc1nc2ccccc2cc1NC(=O)N1CCN(c2cccc(OCC3CC3)c2)CC1
5. FC(F)(F)c1cc(-c2ccc(Cl)c(Cl)c2)nc2ccnn12
6. COc1cc(SC2SCC(O)C(O)C2O)cc(OC)c1OC (stereo unspecified)
7. CC(=O)C(=[N+]=[N-])C(=O)OCc1ccc([N+](=O)[O-])cc1
8. CCc1cnc(N2CCN(C(=O)c3cccc(Nc4ncnc5ccccc45)c3)CC2)nc1

*A*
["112 to 113 °C", "171 to 174 °C", "152 to 154 °C", "146 to 147 °C", "130 to 131 °C", "166 °C", "132 °C", "146 to 147 °C"]

Kindly give each listed record's melting point.
1. O=c1[nH]c2cc(Cl)cc(Cl)c2c(O)c1Sc1ccccc1Br
2. Cc1nnc2n1-c1ccc(Cl)cc1C(N1CCOCC1)=NC2
3. O=S(=O)(Cl)c1ccc(Cl)c(CCl)c1Cl
4. CC(=O)N(C(C)=O)c1cc2c(c(N(C(C)=O)C(C)=O)c1)OC(C(Cl)(Cl)Cl)OC2C(Cl)(Cl)Cl (stereo unspecified)

*A*
285 to 288 °C
243 to 253 °C
68 °C
182 to 183 °C

Lab note: each compound below needs its melting point filled in.
1. CCOC(=O)c1cc2n(C)c3ccccc3c(=O)n2n1
2. CCN(CC)Cc1nc2cc(OC)c(OC)cc2c(-c2ccc(OC)c(OC)c2)c1Cl
3. CCOC(=O)Cn1c(=O)[nH]c2ccc(Cl)cc2c1=O
4. CC1Nc2ccc(-c3ccc(C#N)s3)cc2C(C)(C)O1 (stereo unspecified)

*A*
1. 239 to 241 °C
2. 146 to 148 °C
3. 214 to 215 °C
4. 172 to 173 °C

// batch mode: one melting point value per listed entry
1. COc1ccc(C(=O)C2=CCCCC2)c(Cl)c1Cl
2. O=C(COc1ncccn1)NC1CCN(Cc2ccc(Cl)c(Cl)c2)CC1
3. C#CC[C@@H](NCCCN1C(=O)c2ccccc2C1=O)c1nc2cc(Cl)ccc2c(=O)n1Nc1ccccc1
4. CNC(=O)c1ccc2[nH]ccc2c1
5. CC(=O)NCC1CN(c2ccc(N3CC4CCCN(C(=O)OCc5ccccc5)C4C3)c(F)c2)C(=O)O1 (stereo unspecified)
6. CCCCn1c(=O)c(NC(=O)Nc2c(C(C)C)cccc2C(C)C)c(-c2cccc(OCCCCl)c2)c2cccnc21
7. CCNC(=O)C(c1ccccc1)c1ccccc1
8. N#CC1=NC(Cl)(Cl)N=C1Cl

*A*
1: 126 to 129 °C; 2: 120 to 122 °C; 3: 78 to 80 °C; 4: 140 to 141 °C; 5: 74 to 76 °C; 6: 138 to 140 °C; 7: 87 °C; 8: 114 to 115 °C

* * *

Please respond with reported melting point for every item in the list.

// worked examples, melting point included
- Compound: "COc1c(OC)c(OC)c2c(=O)cc(-c3ccc(O)cc3)oc2c1OC"
  melting point: "187 to 188 °C"
- Compound: "CCCc1c(O)ccc2c(=O)cc(C(=O)OCC)oc12"
  melting point: "155 to 162 °C"
- Compound: "CCCc1c(OCC(O)CS(=O)(=O)c2ccc(CC(=O)O)c(Cl)c2Cl)ccc(C(C)=O)c1O (centres undefined)"
  melting point: "181 to 183 °C"

State the recorded melting point for every item in the following list.
1. COC(=O)NN=Cc1ccc([N+](=O)[O-])cc1
2. COc1cc(-c2nc(-c3ccc(N(C)C)cc3)c(C)[nH]2)ccc1OP(=O)(O)O
3. CC1=C2CCC3C(CCC4(C)C3CCC4(C)O)C2(C)CC(=CO)C1=O (centres undefined)
4. COc1cc(COc2cc(Cn3cncn3)n(-c3ccccc3)n2)ccc1OCc1nc(-c2ccco2)oc1C
5. CCNC(C)CCC1(C(N)=O)c2ccccc2-c2ccccc21 (centres undefined)
6. Cn1ncnc1COc1nc2c(cc1-c1cccs1)nnn2-c1ccccc1F

*A*
1: 212 to 213 °C; 2: 226 to 230 °C; 3: 182 to 188 °C; 4: 95 to 96 °C; 5: 180 to 182 °C; 6: 160 to 162 °C
